All figures here come from PubChem BioAssay.

measurementTarget: Short transient receptor potential channel 4 (Mus musculus)
assayText: blockers of DAMGO-evoked TRPC4 calcium flux – cell-based, Fluo4, HEK293 TRPC4beta/mu-opioid, confirmation (AID 2636)
testSettings: at 10 µM
Activity calls are given as the source filed them.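 Rule for the calls: active = calcium signal cut by more than 3 SD below the full-agonist control yet still positive, in both repeats and the earlier primary screen; inactive = the rest.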
Outcome codes: 1.0 = active, 0.0 = inactive

{"columns": ["compound", "labelClass"],
 "data": [
  ["COc1ccc2c(c1)sc(N)[n+]2Cc1cc(C)cc2cccnc12", 1.0],
  ["O=C(CSc1nc(=O)n(CCN2CCOCC2)c2c1CCC2)Nc1ccc(OC(F)(F)F)cc1", 1.0],
  ["COc1cc(NC(=O)C(C)Oc2ccccc2)cc(OC)c1 (centres undefined)", 0.0],
  ["COc1cc(S(=O)(=O)N2CCC(N3CCCCC3)CC2)ccc1-n1cnnn1", 0.0],
  ["CCC1CCCCN1CCN1C(=O)C2C(C(=O)Nc3ccc(OC)cc3)C3C=CC2(O3)C1C(=O)NC1CCCCC1 (centres undefined)", 1.0],
  ["CCc1cc(C(c2cccc(OC)c2)N2CCOCC2)c(NC(=O)c2ccccc2)s1 (centres undefined)", 1.0],
  ["O=C(OCC(=O)N1CCc2ccccc2C1)c1cccc([N+](=O)[O-])c1", 1.0],
  ["Cc1cc(Nc2ccc3c(c2)OCCO3)c2ccccc2n1", 0.0],
  ["Cn1c(-c2ccccc2)cnc1NCc1ccccc1", 1.0],
  ["CCN1CCCC1CNC(=O)c1cc2c(OC)cccc2[nH]1 (centres undefined)", 0.0],
  ["Cc1ccc(C[n+]2cccc(-c3ccccc3)c2)c(C)c1", 0.0],
  ["Cc1oc(-c2ccc(Cl)cc2)nc1CN1CCC(C(=O)NCc2cccs2)CC1", 1.0],
  ["O=c1oc2ccccc2c(O)c1/C=C1\\C=Nc2ccccc21", 0.0],
  ["C=CCn1c(SCC(=O)c2ccc(NS(=O)(=O)c3ccccc3)cc2)nnc1-c1cccs1", 0.0],
  ["CC(=O)Nc1ccc(S(=O)(=O)N2CCN(CCCOc3cc(C)ccc3C)CC2)cc1", 0.0],
  ["CCN(C(=O)c1c(-c2ccccc2Cl)noc1C)C1CCCCC1", 1.0],
  ["CCn1nc(C)c(CN2CCCC(CO)(Cc3cccc(Cl)c3)C2)c1C (centres undefined)", 1.0],
  ["Cc1cc(S(=O)(=O)N2CCC(N3CCCCC3)CC2)ccc1-n1cnnn1", 0.0],
  ["Cc1ccccc1OCCn1c(C)nc2ccccc21", 1.0],
  ["Cc1cc(N2CCN(C)CC2)ccc1NC(=O)c1ccc(-c2ccc(Cl)cc2)o1", 0.0],
  ["COc1cccc(Cn2c(Oc3ccccc3)nc3c2c(=O)n(C)c(=O)n3C)c1", 1.0],
  ["CCOC(=O)C1(Cc2cccc(F)c2)CCN(Cc2cnn(CC)c2C)CC1", 0.0],
  ["COc1ccc(-n2ncc3c(N4CCc5ccccc54)ncnc32)cc1", 0.0],
  ["CCCCN(C)C(=O)Cn1ncc2c3ccccc3n(CCC)c2c1=O", 0.0],
  ["Cc1cc(C)c2c(=O)n(CC(=O)NCCCN3CCN(c4ccccc4F)CC3)sc2n1", 1.0],
  ["CCN(CC)c1ccc(/C=N/NC(=O)CNC(=O)c2ccccn2)cc1", 0.0],
  ["Cc1ccc(-c2cn(-c3ccccc3)c(SCC(N)=O)n2)cc1C", 0.0],
  ["CC(Sc1nc2sc3c(c2c(=O)n1-c1ccccc1)CCCC3)C(=O)O (centres undefined)", 0.0],
  ["Cc1ccc(N(C(=O)c2snc(C(N)=O)c2N)C(C(=O)NCC2CCCO2)c2ccc(C)o2)c(C)c1 (centres undefined)", 1.0],
  ["CN(C)CC(CCC(CN(C)C)C(O)(c1ccccc1)c1ccccc1)C(O)(c1ccccc1)c1ccccc1 (centres undefined)", 0.0],
  ["COc1ccc(/C=N/Nc2nc3ccccc3s2)cc1O", 0.0],
  ["OCC1(Cc2ccc(Cl)cc2)CCN(Cc2ccccc2F)CC1", 1.0],
  ["NS(=O)(=O)c1ccc(Oc2ccc(S(N)(=O)=O)cc2)cc1", 0.0],
  ["COc1ccc(CCN2CCCC(CN(C)C(=O)c3ccoc3)C2)cc1 (centres undefined)", 0.0]
]}

###

measurementTarget: Short transient receptor potential channel 4 (Mus musculus)
assayText: blockers of DAMGO-evoked TRPC4 calcium flux – cell-based, second round, Fluo4, HEK293 TRPC4beta/mu-opioid, 1 µM, confirmation (AID 2637)
testSettings: at 1 µM
Activity calls are given as the source filed them.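 How the source made its calls: active means calcium signal ratio cut to more than 3 SD under the fully stimulated control mean yet still positive, in both repeats and the primary screen; inactive means the rest.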
Outcome codes: 1.0 = active, 0.0 = inactive

{"columns": ["molecule", "measurementTarget", "labelClass"],
 "data": [
  ["CC[n+]1c(/C=C/Nc2ccccc2)sc2ccccc21", "Short transient receptor potential channel 4 (Mus musculus)", 0.0],
  ["Cc1csc2c(N3CCN(C(=O)Nc4ccc(OC(F)(F)F)cc4)CC3)ncnc12", "Short transient receptor potential channel 4 (Mus musculus)", 0.0],
  ["CCOc1ccc(NS(=O)(=O)c2ccc(NC(=S)NC(=O)CC(C)C)cc2)cc1", "Short transient receptor potential channel 4 (Mus musculus)", 0.0],
  ["CCN1CCN(c2ccc(S(=O)(=O)N3CCCCC3)cc2NC(=O)c2cccc(Cl)c2)CC1", "Short transient receptor potential channel 4 (Mus musculus)", 0.0],
  ["COc1ccccc1Nc1nc(NCC2CCCO2)c2ccccc2n1 (centres undefined)", "Short transient receptor potential channel 4 (Mus musculus)", 1.0],
  ["Cc1ccc(Cn2c(=N)c(C(=O)NC3CCCC3)cc3c(=O)n4ccccc4nc32)cc1", "Short transient receptor potential channel 4 (Mus musculus)", 0.0],
  ["CCOc1cc(S(=O)(=O)N2CCN(C(=O)c3ccco3)CC2)ccc1F", "Short transient receptor potential channel 4 (Mus musculus)", 0.0],
  ["O=c1c2ccccc2[nH]c(=S)n1CCN1CCN(Cc2ccccc2)CC1", "Short transient receptor potential channel 4 (Mus musculus)", 1.0],
  ["CC(=O)Nc1ccc(CN2CCCC(CO)(Cc3ccccc3C)C2)cc1 (centres undefined)", "Short transient receptor potential channel 4 (Mus musculus)", 0.0]
]}

###

System: TRPC4 (transient receptor potential cation channel C4 beta), mouse
assayText: potentiation of DAMGO EC20 TRPC4 response – cell-based, second round, Fluo-4, HEK293 TRPC4beta/mu-opioid, 1 µM, confirmation (AID 2554)
testSettings: DAMGO EC20, Fluo-4 calcium flux, at 1 µM
Activity calls are given as the source filed them.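 How the source made its calls: active means primary screen hit whose fluorescence ratio, in both repeats, exceeds the weak agonist control mean by 3 SD; inactive means the rest.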
Outcome codes: label 1 = active, label 0 = inactive

{"columns": ["compound", "measurementTarget", "labelClass"],
 "data": [
  ["COc1ccc(S(=O)(=O)n2nc(OC(=O)c3ccccc3Br)cc2N)cc1", "TRPC4 (transient receptor potential cation channel C4 beta), mouse", "label 0"],
  ["CC(C)Cc1nc(N2CCOCC2)c(C#N)c2c1CCC2", "TRPC4 (transient receptor potential cation channel C4 beta), mouse", "label 0"],
  ["CCCC1C(=O)Nc2ccccc2N1C(=O)c1ccc(C(C)(C)C)cc1 (stereo not given)", "TRPC4 (transient receptor potential cation channel C4 beta), mouse", "label 0"],
  ["CC1CCCN(C2=C(NS(=O)(=O)c3ccc(Br)cc3)C(=O)c3ccccc3C2=O)C1 (stereo not given)", "TRPC4 (transient receptor potential cation channel C4 beta), mouse", "label 0"],
  ["Cc1ccc(N(CC(=O)NC2CCCC2)C(=O)CNC(=O)c2cccs2)cc1F", "TRPC4 (transient receptor potential cation channel C4 beta), mouse", "label 0"],
  ["Cc1cc(OCc2cc(C(=O)NCCN3CCCCC3CO)no2)cc(C)c1Cl (stereo not given)", "TRPC4 (transient receptor potential cation channel C4 beta), mouse", "label 0"],
  ["O=C(c1cc2cc(Br)cc(Br)c2oc1=O)N1CCCC1", "TRPC4 (transient receptor potential cation channel C4 beta), mouse", "label 0"],
  ["COc1ccc(C(CNC(=O)c2cccc(NS(=O)(=O)c3ccc(Br)cc3)c2)N(C)C)cc1 (stereo not given)", "TRPC4 (transient receptor potential cation channel C4 beta), mouse", "label 0"],
  ["Cc1ccc(CSc2nnc(-c3cccc(S(=O)(=O)N4CCOCC4)c3)n2C2CCCC2)cc1", "TRPC4 (transient receptor potential cation channel C4 beta), mouse", "label 0"],
  ["Cc1cc(C(=O)CN2C(=O)C(=O)N(CC(C)C)C2=O)c(C)n1-c1ccccc1F", "TRPC4 (transient receptor potential cation channel C4 beta), mouse", "label 0"],
  ["NS(=O)(=O)c1ccc(CCNCc2cc(Br)ccc2OCc2ccccc2)cc1", "TRPC4 (transient receptor potential cation channel C4 beta), mouse", "label 0"],
  ["CC(C)CN(CC(C)C)c1nc(N)c(C#N)c(CC#N)c1C#N", "TRPC4 (transient receptor potential cation channel C4 beta), mouse", "label 0"],
  ["CCCc1c(-c2ccc(O)cc2)nn(-c2ccc(O)cc2)c1-c1ccc(O)cc1", "TRPC4 (transient receptor potential cation channel C4 beta), mouse", "label 0"],
  ["O=c1c2ccccc2[nH]c(=S)n1CCN1CCN(Cc2ccccc2)CC1", "TRPC4 (transient receptor potential cation channel C4 beta), mouse", "label 0"],
  ["O=c1c2ccccc2nc(SCc2ccccc2)n1CC1CCCO1 (stereo not given)", "TRPC4 (transient receptor potential cation channel C4 beta), mouse", "label 0"],
  ["Cc1cccn2c(=O)c3cc(C(=O)N(C)C)n(C)c3nc12", "TRPC4 (transient receptor potential cation channel C4 beta), mouse", "label 0"],
  ["Cc1ccc(NC(=O)CN2CCc3ccccc3C2)cc1S(=O)(=O)N1CCOCC1", "TRPC4 (transient receptor potential cation channel C4 beta), mouse", "label 0"],
  ["Cc1ccn(CC(=O)NC2CCCN(Cc3ccc(CC(C)C)cc3)C2)n1 (stereo not given)", "TRPC4 (transient receptor potential cation channel C4 beta), mouse", "label 0"],
  ["CCn1cc(CN2CCC(n3nccc3NC(=O)CCOc3ccccc3)CC2)c(C)n1", "TRPC4 (transient receptor potential cation channel C4 beta), mouse", "label 0"],
  ["Cc1ccc(Nc2c(N)c(=O)oc3ccccc23)cc1", "TRPC4 (transient receptor potential cation channel C4 beta), mouse", "label 0"],
  ["N#Cc1c(N)sc2c1CCCCCC2", "TRPC4 (transient receptor potential cation channel C4 beta), mouse", "label 0"],
  ["CCOC(=O)C1=C(C)N(C)C(=S)NC1c1cccc(Cl)c1Cl (stereo not given)", "TRPC4 (transient receptor potential cation channel C4 beta), mouse", "label 0"],
  ["O=C(NCCCN1CCOCC1)c1ccc(NC(=O)C2COc3ccccc3O2)cc1 (stereo not given)", "TRPC4 (transient receptor potential cation channel C4 beta), mouse", "label 0"],
  ["CC1(C)CC(=O)C(C=NCCN2CCN(C3CC(=O)N(c4cccc(Br)c4)C3=O)CC2)=C(O)C1 (stereo not given)", "TRPC4 (transient receptor potential cation channel C4 beta), mouse", "label 1"],
  ["O=C(Nc1cccc(Cl)c1)N1CCN2C(=O)c3ccccc3C12c1ccccc1 (stereo not given)", "TRPC4 (transient receptor potential cation channel C4 beta), mouse", "label 0"],
  ["COC(=O)/C=C1\\SC(=NC(=O)c2cccc(Cl)c2)NC1=O", "TRPC4 (transient receptor potential cation channel C4 beta), mouse", "label 0"],
  ["CCN1CCN(c2c(Cl)cccc2NC(=O)c2ccc([N+](=O)[O-])cc2)CC1", "TRPC4 (transient receptor potential cation channel C4 beta), mouse", "label 0"],
  ["CCc1ccc2nc3nc(C)cc(C)c3c(N)c2c1", "TRPC4 (transient receptor potential cation channel C4 beta), mouse", "label 0"],
  ["Cc1cc(=O)oc2cc(NC(=S)NCc3ccccn3)ccc12", "TRPC4 (transient receptor potential cation channel C4 beta), mouse", "label 0"],
  ["COc1ccc2c(c1)sc(N)[n+]2Cc1cc(C)cc2cccnc12", "TRPC4 (transient receptor potential cation channel C4 beta), mouse", "label 0"],
  ["O=C1Nc2cc(C(=O)NCCCN3CCOCC3)ccc2S/C1=C/c1ccccc1F", "TRPC4 (transient receptor potential cation channel C4 beta), mouse", "label 0"],
  ["CC(=O)Oc1ccc(/C=C(\\NC(=O)c2ccco2)C(=O)NCc2ccccc2)cc1", "TRPC4 (transient receptor potential cation channel C4 beta), mouse", "label 0"],
  ["CCOC(=O)C1(CC2CC2)CCN(Cc2cnc(-c3ccccc3C)nc2)CC1", "TRPC4 (transient receptor potential cation channel C4 beta), mouse", "label 0"],
  ["O=C(C[n+]1cccc(CNC(=O)c2ccc(OC(F)F)cc2)c1)Nc1ccc(SC(F)F)cc1", "TRPC4 (transient receptor potential cation channel C4 beta), mouse", "label 0"],
  ["Cc1ccc(SC(CC(=O)c2ccc(C(C)(C)C)cc2)C(=O)O)cc1 (stereo not given)", "TRPC4 (transient receptor potential cation channel C4 beta), mouse", "label 0"]
]}
